- Target desc: GST-human receptor interacting protein kinase 1 fusion (8-327) enzyme (Homo sapiens, UniProt Q13546)
- Sequence (Q13546 8-327): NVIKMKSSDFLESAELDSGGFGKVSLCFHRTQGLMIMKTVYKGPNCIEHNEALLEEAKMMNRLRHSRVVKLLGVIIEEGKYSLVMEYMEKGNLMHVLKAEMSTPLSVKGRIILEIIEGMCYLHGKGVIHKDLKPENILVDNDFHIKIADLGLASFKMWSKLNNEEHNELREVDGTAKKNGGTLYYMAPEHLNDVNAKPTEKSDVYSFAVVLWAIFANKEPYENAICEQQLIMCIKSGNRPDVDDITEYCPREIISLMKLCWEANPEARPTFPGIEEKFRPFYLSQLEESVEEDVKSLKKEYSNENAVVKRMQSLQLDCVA
- Assay comment: Fluorescent Polarization Binding (FP Binding) assay, receptor interacting protein kinase 1
- Test settings: 10 nM enzyme, 5 nM fluorescent-labeled ligand, RT 30 min, mean of a minimum of two independent experiments
Each entry below carries its reported IC50.

Consider the following illustrative entries.
Molecule: CCC1(C(F)F)C[C@@H]2CCC(c3cccc(F)c3)N2C1=O (single isomer, unassigned)
IC50: < 1000 nM
//
Molecule: CC(F)(F)C1(C)CN2CCC(c3cncc(F)c3)N2C1=O (stereo not shown) [Compound 47]
IC50: < 1000 nM
//
Molecule: CC1(C)CC2(CN3CCC(c4cccc(F)c4)N3C2=O)C1 (stereo not shown)
IC50: < 1000 nM

Field: next molecule
Could you tell me which IC50 is on file for CC1(C(F)F)CN2CCC(c3cncc(C#N)c3)N2C1=O (single isomer, unassigned) [Compound 38] ?
1000 to 30000 nM
